These entries and their values trace back to ChEMBL document CHEMBL1122959.

- target-of-assay: 3-hydroxy-3-methylglutaryl-coenzyme A reductase (Rattus norvegicus) (UniProt P51639)
- method-summary: Inhibitory activity against partially purified rat liver HMG CoA reductase at 50 ug/ml concentration
Classification field: enter Met for inhibition values not below 30%, Not met for values below it.

Asked: Textbook exercise: given the entry O=C1C[C@@H](O)C[C@@H](/C=C/c2ccc(Cl)cc2Cl)O1 (racemic) , state whether its inhibition is greater than or equal to 30%.
Given back: Not met

Asked: Textbook exercise: given the entry O=C1C[C@H](O)C[C@@H](/C=C/c2ccccc2)O1 , state whether its inhibition is greater than or equal to 30%.
Given back: Met

New cases:
Asked: Textbook exercise: given the entry O=C1C[C@H](O)C[C@@H](CC[C@@H]2CCC[C@@H]3CCCC[C@@H]32)O1 , state whether its inhibition is greater than or equal to 30%.
Given back: Met

Asked: Textbook exercise: given the entry O=C1C[C@H](O)CC(CCC2CCCCC2)O1 (some centres undefined) , state whether its inhibition is greater than or equal to 30%.
Given back: Met

Asked: Textbook exercise: given the entry O=C1C[C@H](O)CC(CCc2cccc3ccccc23)O1 (some centres undefined) , state whether its inhibition is greater than or equal to 30%.
Given back: Met

Asked: Textbook exercise: given the entry O=C1C[C@H](O)CC(c2cccc3ccccc23)O1 (some centres undefined) , state whether its inhibition is greater than or equal to 30%.
Given back: Not met

Asked: Textbook exercise: given the entry O=C1C[C@H](O)CC(c2ccc(Cl)cc2Cl)O1 (some centres undefined) , state whether its inhibition is greater than or equal to 30%.
Given back: Not met

Asked: Textbook exercise: given the entry O=C1C=C(O)OC(/C=C/c2ccc(Cl)cc2Cl)C1 (centres undefined) , state whether its inhibition is greater than or equal to 30%.
Given back: Not met

Asked: Textbook exercise: given the entry O=C1C[C@H](O)C[C@@H](C2CCCCC2)O1 , state whether its inhibition is greater than or equal to 30%.
Given back: Met

----------
- target-of-assay: 3-hydroxy-3-methylglutaryl-coenzyme A reductase (Rattus norvegicus)
- Sequence (whole entry): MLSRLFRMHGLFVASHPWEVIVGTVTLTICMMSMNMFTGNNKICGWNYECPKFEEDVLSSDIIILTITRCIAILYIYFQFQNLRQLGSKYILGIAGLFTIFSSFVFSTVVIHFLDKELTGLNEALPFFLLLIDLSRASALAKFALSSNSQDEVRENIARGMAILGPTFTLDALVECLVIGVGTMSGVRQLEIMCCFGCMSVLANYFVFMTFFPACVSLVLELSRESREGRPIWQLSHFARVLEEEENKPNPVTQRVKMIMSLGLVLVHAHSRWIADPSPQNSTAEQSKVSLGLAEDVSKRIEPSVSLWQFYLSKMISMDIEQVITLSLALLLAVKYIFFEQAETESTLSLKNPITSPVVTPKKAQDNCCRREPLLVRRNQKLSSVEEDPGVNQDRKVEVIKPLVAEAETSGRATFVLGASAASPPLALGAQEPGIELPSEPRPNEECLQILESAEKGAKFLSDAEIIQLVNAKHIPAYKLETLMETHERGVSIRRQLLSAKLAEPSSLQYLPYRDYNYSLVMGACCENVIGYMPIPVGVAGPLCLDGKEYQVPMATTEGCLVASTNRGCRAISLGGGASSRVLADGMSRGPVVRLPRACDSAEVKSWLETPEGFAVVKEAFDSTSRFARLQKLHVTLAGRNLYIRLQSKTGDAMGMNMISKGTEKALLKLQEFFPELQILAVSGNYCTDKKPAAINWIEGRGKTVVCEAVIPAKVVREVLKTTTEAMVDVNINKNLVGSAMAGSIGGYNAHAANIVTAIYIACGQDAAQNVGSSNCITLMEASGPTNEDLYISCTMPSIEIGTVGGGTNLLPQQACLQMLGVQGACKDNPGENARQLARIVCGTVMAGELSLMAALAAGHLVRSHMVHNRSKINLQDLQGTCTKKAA
- method-summary: Inhibition of partially purified rat liver HMG CoA reductase at 10 ug/ml concentration
readout: inhibition (%)
Give bare numbers, in %.

Reference set, count: 3
Asked: Query for 3-hydroxy-3-methylglutaryl-coenzyme A reductase (Rattus norvegicus): what inhibition does the record show for C[C@@]1(O)CC(=O)O[C@H](/C=C/c2ccc(Cl)cc2Cl)C1 ?
Given back: 5

Asked: Query for 3-hydroxy-3-methylglutaryl-coenzyme A reductase (Rattus norvegicus): what inhibition does the record show for O=C1C[C@H](O)C[C@@H](CC[C@@H]2CCC[C@@H]3CCCC[C@@H]32)O1 ?
Given back: 22

Asked: Query for 3-hydroxy-3-methylglutaryl-coenzyme A reductase (Rattus norvegicus): what inhibition does the record show for O=C1C[C@H](O)C[C@@H](/C=C/c2ccc(Cl)cc2Cl)O1 (racemic) ?
Given back: 64

For every listed record, write down its inhibition.
1. C[C@]1(O)CC(=O)O[C@H](/C=C/c2ccc(Cl)cc2Cl)C1
2. COC(/C=C/c1ccc(Cl)cc1Cl)CC(O)CC(=O)O (centres undefined)
3. O=C1C[C@H](O)CC(c2cccc3ccccc23)O1 (some centres undefined)
4. O=C1C=C(O)OC(/C=C/c2ccc(Cl)cc2Cl)C1 (centres undefined)

Given back:
1: 61; 2: 0; 3: 9; 4: 12

For every listed record, write down its inhibition.
1. O=C1C[C@H](O)C[C@@H](/C=C/c2ccc(Cl)cc2Cl)O1 (stereo in doubt; 6a(+))
2. O=C1C[C@H](O)CC(c2ccc(Cl)cc2Cl)O1 (some centres undefined)
3. O=C1C[C@@H](O)C[C@@H](/C=C/c2ccc(Cl)cc2Cl)O1 (racemic)
4. O=C1C[C@H](O)CC(CCc2cccc3ccccc23)O1 (some centres undefined)
5. O=C1C[C@H](O)C[C@@H](COc2ccc(Cl)cc2Cl)O1
6. O=C1C[C@H](O)C[C@@H](CCc2ccc(Cl)cc2Cl)O1
7. O=C1C[C@H](O)CC(CCCc2cccc3ccccc23)O1 (some centres undefined)
8. CC1=CC(=O)OC(/C=C/c2ccc(Cl)cc2Cl)C1 (centres undefined)

Given back:
[72, 26, 27, 29, 21, 80, 25, 3]
